# credit: patent US10344017B2

Tested on: ERK5 (HA-ERK5 wt activated by EGFP-MEK5D, MEF2D-Gal4/Gal4-Luc reporter) in HEK293 cells
Assay: Dual-luciferase reporter assay (ERK5 reporter), reverse-transfected HEK293 cells
Conditions: Homo sapiens, HEK293, read-out: ERK 5 Reporter Assay
property: IC50 (µM)
Give bare numbers, in µM.

Reference set, count: 3
# input May I ask what IC50 has been recorded for O=C(NC1CCNCC1)c1cc(C(=O)c2cccc(Cl)c2Cl)c[nH]1 [Example 160] ?
# output 30

# input Proceed to O=C(Nc1cccnc1)c1cc(C(=O)c2c(Cl)ccc(Cl)c2F)c[nH]1 [Example 172]
# output 0.599

# input Proceed to O=C(Nc1cccnc1)c1cc(C(=O)c2cc(F)ccc2F)c[nH]1 [Example 225]
# output 4.77

Parameter requested: IC50. Apply to each item below.
1. O=C(Nc1ccncc1)c1cc(C(=O)c2c(F)cccc2C(F)(F)F)c[nH]1 [Example 183]
2. CC(=O)N1CCC(NC(=O)c2cc(C(=O)c3c(Cl)ccc(Cl)c3F)c[nH]2)CC1 [Example 7]
3. CN1CCC(NC(=O)c2cc(C(=O)c3c(F)cccc3F)c[nH]2)CC1 [Example 129]
4. O=C(Nc1cccnc1)c1cc(C(=O)c2cccc(Cl)c2Cl)c[nH]1 [Example 159]
5. O=C(Nc1cncnc1)c1cc(C(=O)c2c(Cl)ccc(Cl)c2F)c[nH]1 [Example 173]
6. COc1ccc(Cl)c(C(=O)c2c[nH]c(C(=O)NC3CCN(C)CC3)c2)c1F [Example 70]

# output
1. 7.67
2. 0.968
3. 6
4. 24
5. 0.508
6. 0.477

# input May I ask what IC50 has been recorded for O=C(Nc1ccncc1)c1cc(C(=O)c2c(F)cccc2Cl)c[nH]1 [Example 187] ?
# output 2.33
